Across several publications, the following IC50 results were reported for UniProt:O75874.

smiles-notation	recorded-value
Cc1nc(N[C@@H](C)c2ccc(Oc3ccccc3)cc2)nc(N2C(=O)OC[C@@H]2C(C)C)n1	> 50 µM
Cc1nc(N[C@@H](C)c2cc3cc(Cl)ccc3[nH]c2=O)nc(N2C(=O)OC[C@@H]2[C@H](C)F)n1	> 50 µM
CC[C@H]1COC(=O)N1c1nc(C)nc(N[C@@H](C)c2cc3cc(Cl)c(OC)cc3[nH]c2=O)n1	> 50 µM
CC[C@H]1COC(=O)N1c1nc(C)nc(N[C@@H](C)c2ccc(Oc3ccc4ccccc4c3)cc2)n1	> 50 µM
O=C(O)CCc1ccc2c(c1)nc(Nc1ccc(OC(F)(F)F)cc1)n2[C@@H]1CCCc2ccccc21	> 10 µM

[Q] Reported IC50 for `CC[C@H]1COC(=O)N1c1nc(C)nc(N[C@@H](C)c2cn(-c3ccc(Cl)cc3)cn2)n1` : what is it?
[A] > 50 µM

[Q] Could you share which IC50 value was measured for `CC[C@H]1COC(=O)N1c1nc(C)nc(N[C@@H](C)c2ccc(Oc3ccc(F)cc3Br)cc2)n1` ?
[A] > 50 µM

[Q] What does the data say about its IC50? Entry: `COc1nc(N[C@@H](C)c2ccc(Oc3ccccc3)cc2)nc(N2C(=O)OC[C@@H]2C(C)C)n1`
[A] > 30 µM

[Q] Which measured IC50 value corresponds to `CC(C)[C@H]1COC(=O)N1c1ncnc(N[C@@H](C)c2ccc(Cl)c(Cl)c2)n1` ?
[A] > 30 µM

[Q] Which IC50 is listed for `CC(C)[C@H]1COC(=O)N1c1ncnc(N[C@@H](C)c2ccc(Oc3ccccc3)cn2)n1` ?
[A] > 50 µM

[Q] Report IC50 for `CC[C@H]1COC(=O)N1c1nc(N[C@@H](C)c2cn(-c3ccc(C(F)(F)F)cc3)cn2)nc(OC)n1` please.
[A] > 50 µM

[Q] What IC50 value was documented for this molecule, `CC[C@H]1COC(=O)N1c1nc(C)nc(N[C@@H](C)c2cn(-c3ccc(C(F)(F)F)cc3)cn2)n1` ?
[A] > 50 µM

[Q] I'd like to know its IC50. The molecule in question is `CC(C)[C@H]1COC(=O)N1c1ncnc(N[C@@H](C)c2ccccc2)n1`
[A] > 50 µM

[Q] What does the data say about its IC50? Entry: `C=CC(=O)N1CCN(c2ccc([C@H](C)Nc3ncc4c(n3)N(C(C)C)C(=O)OC4)cc2)CC1`
[A] 11.8 µM

[Q] So what does the record say about IC50 for `Cc1cc(C(=O)O)ccc1-c1ccc(/C=C2/NC(=O)N(Cc3ccc(Br)cc3)C2=O)o1` ?
[A] 46.8 µM

[Q] Any idea what its IC50 is? The molecule is `CC[C@H]1COC(=O)N1c1nc(C)nc(N[C@@H](C)c2ccc(Oc3ccccc3)c(-c3ccccc3)c2)n1`
[A] > 50 µM

[Q] So what's the measured IC50 for this one? `CC[C@H]1COC(=O)N1c1nc(C)nc(N[C@@H](C)c2ccc(Oc3ccc(F)cc3)cc2)n1`
[A] > 50 µM

[Q] For the molecule `C=CC(=O)N1CCN(Cc2ccc([C@H](C)Nc3ncc4c(n3)N(CC)C(=O)OC4)cc2F)CC1` , what IC50 is on record?
[A] 8.68 µM
